Data credit: paper PMC4118675

system tested: human c-Myc-DUSP1 (Homo sapiens)
Sequence (P28562 whole entry): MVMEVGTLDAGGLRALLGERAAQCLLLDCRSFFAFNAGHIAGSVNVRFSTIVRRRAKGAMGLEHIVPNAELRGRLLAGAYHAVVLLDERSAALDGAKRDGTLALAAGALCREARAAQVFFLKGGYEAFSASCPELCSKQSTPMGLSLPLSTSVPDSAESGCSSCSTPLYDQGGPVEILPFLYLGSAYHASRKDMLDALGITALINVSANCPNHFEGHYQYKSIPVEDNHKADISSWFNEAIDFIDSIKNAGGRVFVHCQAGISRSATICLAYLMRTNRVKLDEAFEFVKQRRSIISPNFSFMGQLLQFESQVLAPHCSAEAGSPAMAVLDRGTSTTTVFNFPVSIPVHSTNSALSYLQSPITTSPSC
assay text: Chemical complementation assay for DUSP1
measure name: pIC50
Lab note — pIC50 values are minus log10 of concentrations in M.

Query :: Given the compound O=C1/C(=C/c2ccccc2)C(NC2CCCCC2)c2ccccc21 (stereo not shown) , what is its reported pIC50?
Result :: 5.10

###

system tested: human c-Myc-DUSP6 (Homo sapiens, UniProt Q16828)
Sequence (Q16828 whole entry): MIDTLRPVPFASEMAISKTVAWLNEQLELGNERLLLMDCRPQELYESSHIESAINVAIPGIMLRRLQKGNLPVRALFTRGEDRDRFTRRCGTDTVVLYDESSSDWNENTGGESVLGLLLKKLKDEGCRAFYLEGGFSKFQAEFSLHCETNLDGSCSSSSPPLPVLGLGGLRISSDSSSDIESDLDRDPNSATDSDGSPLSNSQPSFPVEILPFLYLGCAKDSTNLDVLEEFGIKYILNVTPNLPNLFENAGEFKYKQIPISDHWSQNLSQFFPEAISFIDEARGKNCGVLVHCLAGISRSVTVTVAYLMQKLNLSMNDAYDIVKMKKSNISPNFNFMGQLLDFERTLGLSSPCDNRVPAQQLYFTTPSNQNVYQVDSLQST
assay text: Chemical complementation assay for DUSP6
Type: cell-based
measure name: pIC50
Would you please state pIC50, meaning minus log10 of the concentration in mol/L, as a bare number?

Query :: Name the recorded pIC50 for O=C1/C(=C/c2ccccc2)C(NC2CCCCC2)c2ccccc21 (stereo not shown) .
Result :: 4.88
